system_name: T1, Gbp2 RRM2 (Saccharomyces cerevisiae, UniProt P25555 219-316)
T1 sequence: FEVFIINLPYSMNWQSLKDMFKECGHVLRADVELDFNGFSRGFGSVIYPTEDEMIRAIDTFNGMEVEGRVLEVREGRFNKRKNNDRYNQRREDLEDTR
experimental_protocol: fluorescence anisotropy
recorded_metric: Kd (µM)
Response body: numeric value in µM, unit text excluded.

binder | Kd [µM]
UUGGUGUU (ssRNA) [Selex RNA UUGGUGUU] | 54

Proceeding to the next binder to report its Kd.
# Kd lookup, item TTGGTGTT (ssDNA) [d(TTGGTGTT)]
310

Entry source: paper PMC4705658
